tested on: Staphylococcus aureus MW2 (mecA+); test: normalized DsRed fluorescence (growth of mecA+ strain) (fraction of control range); higher = more growth of mecA+ strain; details: compound concentration: 150 uM; cefoxitin: subinhibitory; fluorescent label: DsRed
measure: normalized DsRed fluorescence
No unit in the answer, only the number.

Some compounds with recorded normalized DsRed fluorescence:
>>> value_observed("CCCN(CCC)C(=O)C(CCC(=O)O)NC(=O)c1ccccc1 (stereo not given)")
0.55
>>> value_observed("Clc1ccc2c(c1)C(N1CCNCC1)=Nc1ccccc1O2")
1.74

Sure, the documented normalized DsRed fluorescence for CC(C)(C(=O)O)c1ccc(C(O)CCCN2CCC(C(O)(c3ccccc3)c3ccccc3)CC2)cc1 (stereo not given) is 1.03
